- Tested on: HeLa Kyoto
- assay-explanation: melting temperature (median over replicates), in situ; higher = more thermally stable
- experimental-parameters: cell cycle stage: mitosis
# melting temperature per entry
The response must be a number in °C with no trailing unit.

Please review the following examples before continuing.
biopolymer-sequence	system	experimental-endpoint	value
MALPIIVKWGGQEYSVTTLSEDDTVLDLKQFLKTLTGVLPERQKLLGLKVKGKPAENDVKLGALKLKPNTKIMMMGTREESLEDVLGPPPDNDDVVNDFDIEDEVVEVENREENLLKISRRVKEYKVEILNPPREGKKLLVLDVDYTLFDHRSCAETGVELMRPYLHEFLTSAYEDYDIVIWSATNMKWIEAKMKELGVSTNANYKITFMLDSAAMITVHTPRRGLIDVKPLGVIWGKFSEFYSKKNTIMFDDIGRNFLMNPQNGLKIRPFMKAHLNRDKDKELLKLTQYLKEIAKLDDFLDLNHKYWERYLSKKQGQ [UBLCP1]	HeLa Kyoto	melting temperature	50
MAPWTLWRCCQRVVGWVPVLFITFVVVWSYYAYVVELCVFTIFGNEENGKTVVYLVAFHLFFVMFVWSYWMTIFTSPASPSKEFYLSNSEKERYEKEFSQERQQEILRRAARALPIYTTSASKTIRYCEKCQLIKPDRAHHCSACDSCILKMDHHCPWVNNCVGFSNYKFFLLFLLYSLLYCLFVAATVLEYFIKFWTNELTDTRAKFHVLFLFFVSAMFFISVLSLFSYHCWLVGKNRTTIESFRAPTFSYGPDGNGFSLGCSKNWRQVFGDEKKYWLLPIFSSLGDGCSFPTRLVGMDPEQASVTNQNEYARSSGSNQPFPIKPLSESKNRLLDSESQWLENGAEEGIVKSGTNNHVTVAIEN [ZDHHC20]	HeLa Kyoto	melting temperature	58.2

Now for the sequence whose melting temperature we want.
Form field: reported melting temperature of MAYAYLFKYIIIGDTGVGKSCLLLQFTDKRFQPVHDLTIGVEFGARMITIDGKQIKLQIWDTAGQESFRSITRSYYRGAAGALLVYDITRRDTFNHLTTWLEDARQHSNSNMVIMLIGNKSDLESRREVKKEEGEAFAREHGLIFMETSAKTASNVEEAFINTAKEIYEKIQEGVFDINNEANGIKIGPQHAATNATHAGNQGGQQAGGGCC [RAB2A]
61

###

- Test system: HeLa Kyoto
- assay-explanation: solubility in G1/S (NP-40 vs SDS abundance) (log2 ratio); higher = more soluble
- experimental-parameters: cell cycle stage: G1/S
experimental-endpoint: solubility in G1/S (log2)
Lab note: jot the number down without any unit.

Please review the following examples before continuing.
biopolymer-sequence	solubility in G1/S (log2)
MDLRQFLMCLSLCTAFALSKPTEKKDRVHHEPQLSDKVHNDAQSFDYDHDAFLGAEEAKTFDQLTPEESKERLGKIVSKIDGDKDGFVTVDELKDWIKFAQKRWIYEDVERQWKGHDLNEDGLVSWEEYKNATYGYVLDDPDPDDGFNYKQMMVRDERRFKMADKDGDLIATKEEFTAFLHPEEYDYMKDIVVQETMEDIDKNADGFIDLEEYIGDMYSHDGNTDEPEWVKTEREQFVEFRDKNRDGKMDKEETKDWILPSDYDHAEAEARHLVYESDQNKDGKLTKEEIVDKYDLFVGSQATDFGEALVRHDEF [CALU]	0.281
MKLIILEHYSQASEWAAKYIRNRIIQFNPGPEKYFTLGLPTGSTPLGCYKKLIEYYKNGDLSFKYVKTFNMDEYVGLPRDHPESYHSFMWNNFFKHIDIHPENTHILDGNAVDLQAECDAFEEKIKAAGGIELFVGGIGPDGHIAFNEPGSSLVSRTRVKTLAMDTILANARFFDGELTKVPTMALTVGVGTVMDAREVMILITGAHKAFALYKAIEEGVNHMWTVSAFQQHPRTVFVCDEDATLELKVKTVKYFKGLMLVHNKLVDPLYSIKEKETEKSQSSKKPYSD [GNPDA1]	0.183

Now for the sequence whose solubility in G1/S (log2) we want.
Form field: reported solubility in G1/S (log2) of MGEFNEKKTTCGTVCLKYLLFTYNCCFWLAGLAVMAVGIWTLALKSDYISLLASGTYLATAYILVVAGTVVMVTGVLGCCATFKERRNLLRLYFILLLIIFLLEIIAGILAYAYYQQLNTELKENLKDTMTKRYHQPGHEAVTSAVDQLQQEFHCCGSNNSQDWRDSEWIRSQEAGGRVVPDSCCKTVVALCGQRDHASNIYKVEGGCITKLETFIQEHLRVIGAVGIGIACVQVFGMIFTCCLYRSLKLEHY [CD151]
-0.288
